- experimental.target: Kappa-type opioid receptor (Cavia porcellus, UniProt P41144)
- Sequence (P41144 whole entry): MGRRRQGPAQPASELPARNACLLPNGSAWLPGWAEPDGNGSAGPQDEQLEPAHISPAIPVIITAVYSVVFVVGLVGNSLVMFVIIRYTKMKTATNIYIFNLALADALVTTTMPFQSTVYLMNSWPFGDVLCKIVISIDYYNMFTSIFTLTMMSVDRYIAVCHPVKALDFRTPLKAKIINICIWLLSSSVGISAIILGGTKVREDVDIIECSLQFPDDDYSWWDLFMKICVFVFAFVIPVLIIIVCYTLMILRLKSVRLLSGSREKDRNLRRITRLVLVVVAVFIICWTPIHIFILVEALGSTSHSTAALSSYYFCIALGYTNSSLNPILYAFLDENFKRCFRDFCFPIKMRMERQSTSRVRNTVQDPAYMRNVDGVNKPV
- assay.info: Compound was tested for the inhibition of [35S]GTP-gamma-S, binding Opioid receptor kappa 1
- Type: functional
measurement.label: Ki (nM)
The answer is to be given in nM; state only the numeric part.

I looked up C[C@]12Cc3ccccc3C[C@@]1(c1cccc(O)c1)CCN(CCc1ccccc1)C2 and its Ki for Kappa-type opioid receptor (Cavia porcellus, UniProt P41144) was 6.61

###

- experimental.target: Kappa-type opioid receptor (Cavia porcellus, UniProt P41144)
- assay.info: Binding affinity was determined as ability to displace [3H]-U-69, radioligand from Opioid receptor kappa 1
measurement.label: pKi
# reply with the number alone; pKi is -log10 of concentration in mol/L

| chemical.smiles | pKi |
| --- | --- |
| C[C@]12Cc3ccccc3C[C@@]1(c1cccc(O)c1)CCN(CCc1ccccc1)C2 | 8.01 |

From here, focus on the item given below.
Given item CN1CC[C@]2(c3cccc(O)c3)Cc3ccccc3C[C@]2(C)C1 , the value recorded as its pKi is 6.78

###

- experimental.target: Kappa-type opioid receptor (Cavia porcellus, UniProt P41144)
- assay.info: Compound was tested for the inhibition of [35S]GTP-gamma-S, binding to Opioid receptor kappa 1
- Format: functional
measurement.label: pKi
# reply with the number alone; pKi is -log10 of concentration in mol/L

Given item CN1CC[C@]2(c3cccc(O)c3)Cc3ccccc3C[C@]2(C)C1 , the value recorded as its pKi is 7.28

###

- experimental.target: UniProt P97266
- Sequence (P97266 whole entry): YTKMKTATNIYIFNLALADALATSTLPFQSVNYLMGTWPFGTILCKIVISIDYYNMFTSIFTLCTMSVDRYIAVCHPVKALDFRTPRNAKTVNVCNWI
- assay.info: Compound was tested for the inhibition of [35S]GTP-gamma-S, binding in Guinea pig Caudate stimulated by the opioid receptor agonist Mu-DAMGO
- Type: functional
Parameter: Ki. Scope: all listed entries.
The answer is to be given in nM; state only the numeric part.

| chemical.smiles | Ki / nM |
| --- | --- |
| CN1CC[C@]2(c3cccc(O)c3)Cc3ccccc3C[C@]2(C)C1 | 119 |

From here, focus on the item given below.
Given item C[C@]12Cc3ccccc3C[C@@]1(c1cccc(O)c1)CCN(CCc1ccccc1)C2 , the value recorded as its Ki is 10

###

A set of compounds tested on Mu-type opioid receptor (Rattus norvegicus, UniProt P33535), with measured Ki:
The answer is to be given in nM; state only the numeric part.

| chemical.smiles | measurement.unit | Ki |
| --- | --- | --- |
| CN1CC[C@]2(c3cccc(O)c3)Cc3ccccc3C[C@]2(C)C1 | nM | 297 |

I looked up C[C@]12Cc3ccccc3C[C@@]1(c1cccc(O)c1)CCN(CCc1ccccc1)C2 and its Ki for Mu-type opioid receptor (Rattus norvegicus, UniProt P33535) was 11.2
